So I've got a bunch of compounds here, and I need their inhibition at 20 µM values.
# studySystem: TelJak3 (BaF3 TELJAK cells, TEL/JAK3 fusion) (Homo sapiens)
# Construct: For JAK3 Sa1 I/Not I cleaved kinase domain PCR product was ligated with BamH I/Sa1 I cleaved TELproduct; expressed in transfected cells; host or cells: BaF3 cells bearing the pTET-off plasmid, transfected with pTELJAK3 (pTRE2 vector); the other entry of the earlier key: ETV6 (P41212, Transcription factor ETV6)
# protocolSummary: Cellular growth inhibition assay (MTT), BaF3 TEL:JAK3 cell line
# Format: cell-based
# recordedConditions: Table 1, 40 hr incubation

I'd like to know its inhibition at 20 µM. The compound in question is CCCC(Nc1cncc(-c2ccc(NC(=O)NCC)c(OC)c2)n1)c1cnccc1C (centres unmarked)
> 50%

Next: CCC[C@H](Nc1ccnc(-c2ccc(NC(=O)NCC)c(OC)c2)n1)c1cccnc1
> 50%

Now consider CCCC(Nc1cncc(-c2ccc(NC(=O)C3CCNCC3)c(OC)c2)n1)c1cccnc1 (centres unmarked) and answer again.
< 50%

Also need CCC[C@H](Nc1cncc(-c2ccc(NC(=O)NC)c(OC)c2)n1)c1cccnc1 , thanks.
> 50%

Same for CCCC(Nc1cncc(-c2ccc(C(=O)N3CCOCC3)cc2)n1)c1ccccc1 (centres unmarked)
> 50%

====

# studySystem: TelJak2 (BaF3 TELJAK cells, TEL/Jak2 fusion) (Homo sapiens, UniProt O60674)
# Construct: The regions encompassing the kinase domain of JAK2 (nucleotides 2994-3914); expressed in transfected cells; host or cells: BaF3 cells bearing the pTET-off plasmid, transfected with pTELJAK2 (pTRE2 vector); the other entry of the earlier key: ETV6 (P41212, Transcription factor ETV6)
# Sequence (O60674 with tags, fused parts or gaps): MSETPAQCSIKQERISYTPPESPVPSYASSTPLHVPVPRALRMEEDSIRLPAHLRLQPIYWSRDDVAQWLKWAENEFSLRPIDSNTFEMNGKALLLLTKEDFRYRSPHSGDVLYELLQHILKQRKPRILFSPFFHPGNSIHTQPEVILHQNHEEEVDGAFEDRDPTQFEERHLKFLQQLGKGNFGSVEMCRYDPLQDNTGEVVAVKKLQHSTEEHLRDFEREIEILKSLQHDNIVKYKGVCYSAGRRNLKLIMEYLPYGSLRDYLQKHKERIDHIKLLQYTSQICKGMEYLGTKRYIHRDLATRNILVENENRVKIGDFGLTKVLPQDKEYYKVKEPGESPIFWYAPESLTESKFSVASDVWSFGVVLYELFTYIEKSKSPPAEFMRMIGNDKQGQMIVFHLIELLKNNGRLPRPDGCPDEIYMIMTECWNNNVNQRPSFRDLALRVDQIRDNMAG
# protocolSummary: Cellular growth inhibition assay (MTT), BaF3 TEL:JAK2 cell line
# Type: cell-based
# recordedConditions: Table 1, 40 hr incubation
Assign inhibition at 20 µM to each entry below.

Record lookup: for TelJak2 (BaF3 TELJAK cells, TEL/Jak2 fusion) (Homo sapiens, UniProt O60674), what inhibition at 20 µM belongs to CCC[C@H](Nc1cncc(-c2ccc(NC(=O)NCC)c(C)c2)n1)c1cccnc1 ?
> 50%

What do you have for CCCC(Nc1cncc(-c2ccc(OCCCO)c(OC)c2)n1)c1ccccc1 (stereo not drawn) ?
> 50%

And then CCNC(=O)Nc1ccc(-c2ncc(C)c(N[C@@H](CC)c3cccnc3)n2)cc1OC , what is it?
> 50%

Consider next the compound CCCC(Nc1cncc(-c2cc(OC)c(OC)c(OC)c2)c1)c1ccccc1 (stereo not drawn) in the same way.
> 50%

What do we get for CCCC(Nc1cncc(-c2ccc(NC(=O)NCC)c(C)c2)n1)c1ccccn1 (stereo not drawn) ?
> 50%

Next: CCCC(Nc1cncc(-c2ccc(OCCCCN3CCOCC3)c(OC)c2)n1)c1ccccc1 (stereo not drawn)
> 50%

Let us now turn to CCCC(Nc1cncc(-c2ccc(OCCCN3CCCC3)c(OC)c2)n1)c1cccnc1 (stereo not drawn)
> 50%

Please answer likewise for CCCC(Nc1cncc(-c2ccc(OCCCN3CCCC3)c(OC)c2)n1)c1ccccc1 (stereo not drawn)
> 50%

Query CCCC(Nc1cncc(-c2ccc(CO)cc2)n1)c1ccccc1 (stereo not drawn) next
> 50%

====

Field: inhibition at 20 µM. Provide a value for each of the compounds that follow.
# studySystem: TelJak3 (BaF3 TELJAK cells, TEL/JAK3 fusion) (Homo sapiens, UniProt P52333)
# Construct: For JAK3 Sa1 I/Not I cleaved kinase domain PCR product was ligated with BamH I/Sa1 I cleaved TELproduct; expressed in transfected cells; host or cells: BaF3 cells bearing the pTET-off plasmid, transfected with pTELJAK3 (pTRE2 vector); the other entry of the earlier key: ETV6 (P41212, Transcription factor ETV6)
# Sequence (P52333 with tags, fused parts or gaps): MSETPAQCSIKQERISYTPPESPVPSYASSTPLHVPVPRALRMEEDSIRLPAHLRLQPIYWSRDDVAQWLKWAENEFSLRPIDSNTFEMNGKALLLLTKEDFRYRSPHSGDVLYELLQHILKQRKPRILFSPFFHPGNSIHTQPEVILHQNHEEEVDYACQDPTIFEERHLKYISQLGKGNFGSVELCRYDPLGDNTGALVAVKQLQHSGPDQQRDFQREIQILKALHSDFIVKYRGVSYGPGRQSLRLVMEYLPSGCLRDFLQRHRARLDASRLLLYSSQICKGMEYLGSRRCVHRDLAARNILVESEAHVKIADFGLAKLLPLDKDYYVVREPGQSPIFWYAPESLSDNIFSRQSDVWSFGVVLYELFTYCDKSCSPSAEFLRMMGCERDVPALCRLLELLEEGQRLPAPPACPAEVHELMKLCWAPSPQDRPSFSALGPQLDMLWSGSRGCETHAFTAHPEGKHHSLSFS
# protocolSummary: Cellular growth inhibition assay (MTT), BaF3 TEL:JAK3 cell line
# Type: cell-based
# recordedConditions: Table 1, 40 hr incubation

Fill blank: measured inhibition at 20 µM of the compound CC[C@H](Nc1nc(-c2ccc(O)c(OC)c2)ncc1C)c1cccnc1 is ____.
> 50%

# iterate: CCCC(Nc1cncc(-c2ccc(NC(=O)NCCN(C)C)c(OC)c2)n1)c1cccnc1 (centres unmarked)
> 50%

Another compound: CCCC(Nc1cncc(-c2ccc(OCCCN3CCOCC3)c(OC)c2)n1)c1cccnc1 (centres unmarked)
> 50%

Same for CCC[C@H](Nc1cncc(-c2ccc(NC(=O)NCC)c(OC)c2)n1)c1cccnc1
> 50%

Try the compound CCCC(Nc1cncc(-c2ccc(OCCCN3CCCC3)c(OC)c2)n1)c1cccnc1 (centres unmarked)
> 50%

From: patent US9732046B2
